# measured_target: recombinant human Muscarinic M1 receptor (Homo sapiens)
# procedure_details: Allosteric potency EC50 for Muscarinic M1 receptor, CHO pCRE-Luc reporter assay with EC20 of acetylcholine
# test_settings: CHO cells, in presence of EC20 of acetylcholine, 4 hours
# Experimental: Determination of Allosteric Potency EC50 Values for Muscarinic M1 Receptor: A stable CHO cell line expressing recombinant human Muscarinic M1 receptor and pCRE-Luc reporter system was used for cell-based assay. The assay offers a non-radioactive based approach to determine binding of a compound to GPCRs. In this specific assay, the level of intracellular cyclic AMP which is modulated by activation or inhibition of the receptor is measured. […]
pEC50: −log10 of the molar value.
result_type: pEC50

O=C(N[C@H]1CCCC[C@@H]1O)c1cc(Cc2ccc(-n3cccn3)cc2)c2cccnn12 [Example 21]; 6.75
O=C(N[C@H]1CCCC[C@@H]1O)c1cc(Cc2ccnc(Cl)c2)c2cccnn12 [Example 11]; 5.89
O=C(N[C@H]1CCCC[C@@H]1O)c1cc(Cc2ccc(Cl)nc2)c2cccnn12 [Example 16]; 5.56
Cn1cc(-c2ccc(Cc3cc(C(=O)N[C@H]4CCCC[C@@H]4O)n4ncccc34)c(F)c2F)cn1 [Example 36]; 7.03
Cn1cc(-c2ccc(Cc3cc(C(=O)NC4CCOCC4O)n4ncccc34)cc2)cn1 (stereo not shown) [Example 39]; 6.54

A: O=C(N[C@H]1CCCC[C@@H]1O)c1cc(Cc2ccc(Br)nc2)c2cccnn12 [Example 5]
B: COc1ccc(Cc2cc(C(=O)NC3CCOCC3O)c3c(F)cccn23)cc1 (stereo not shown) [Example 47]
Data request: Pick one: A or B . Which one has the lower reported pEC50? Record your answer as the label of the chosen record.
Data returned: A

* * *

# procedure_details: Rodent pharmacokinetic study
# Format: in vivo, Male Wistar rats
# test_settings: male, Wistar, iv; rat, i.v. 1 mg/kg, plasma
result_type: AUC(0-t) (ng·h/mL)

Guide cases for AUC(0-t), answers given:
Cn1cc(-c2ccc(Cc3cc(C(=O)N[C@H]4CCCC[C@@H]4O)n4ncccc34)cc2F)cn1; 908
Cn1cc(-c2ccc(Cc3cc(C(=O)N[C@H]4CCCC[C@@H]4O)n4ncccc34)cc2)cn1; 3260
Cn1cc(-c2ccc(Cc3cc(C(=O)N[C@H]4CCCC[C@@H]4O)n4ncccc34)c(F)c2)cn1; 3230
O=C(N[C@H]1CCCC[C@@H]1O)c1cc(Cc2ccc3c(c2)CCO3)c2cccnn12; 599
COc1ccc(Cc2cc(C(=O)N[C@H]3CCCC[C@@H]3O)n3ncccc23)cc1; 1380

1: O=C(N[C@H]1CCCC[C@@H]1O)c1cc(Cc2ccc(-n3cccn3)cc2)c2cccnn12
2: O=C(N[C@H]1CCCC[C@@H]1O)c1cc(Cc2ccc(Br)c(F)c2)c2cccnn12
Data request: Param pair: 1 , 2 . Output: the one whose AUC(0-t) is numerically greater. Give the chosen item's label as your response.
Data returned: 1

* * *

# measured_target: recombinant human Muscarinic M1 receptor (Homo sapiens, UniProt P11229)
# procedure_details: Allosteric potency EC50 for Muscarinic M1 receptor, CHO pCRE-Luc reporter assay with EC20 of acetylcholine
# test_settings: CHO cells, in presence of EC20 of acetylcholine, 4 hours
result_type: EC50 (nM)

1: O=C(N[C@H]1CCCC[C@@H]1O)c1cc(Cc2ccc(F)cc2Br)c2cccnn12 [Example 24]
2: Cn1cc(-c2ccc(Cc3cc(C(=O)N[C@H]4CCCC[C@@H]4O)n4ncccc34)cn2)cn1 [Example 35]
Data request: Lab note: check whether 1 or 2 has the lower measured EC50. Provide the label of your selected option as the answer.
Data returned: 2
(2: 599 nM, 1: 1180 nM)

1: COc1ccc(Cc2cc(C(=O)N[C@H]3CCCC[C@@H]3O)c3c(F)cccn23)cc1 [Example 44]
2: O=C(NC1CCOCC1O)c1cc(Cc2ccnc(Cl)c2)n2cccc(F)c12 (centres unmarked) [Example 46]
Data request: API: POST /compare with 1 and 2 ; response names the item with higher EC50. Reply with the label of the item you choose.
Data returned: 1

P: O=C(NC1CCOCC1O)c1cc(Cc2ccc(Br)cc2)c2cccnn12 (centres unmarked) [Example 31]
Q: O=C(N[C@H]1CCCC[C@@H]1O)c1cc(Cc2cccnc2Cl)c2cccnn12 [Example 28]
Data request: Which value of EC50 is greater, the one for P or the one for Q ? When you have decided, please share the label of that item.
Data returned: Q
(Q: 10000 nM, P: 1030 nM)

1: O=C(N[C@H]1CCCC[C@@H]1O)c1cc(Cc2ccc(F)c(Br)c2)c2cccnn12 [Example 26]
2: O=C(N[C@H]1CCCC[C@@H]1O)c1cc(Cc2ccccc2F)c2cccnn12 [Example 13]
3: O=C(N[C@H]1CCCC[C@@H]1O)c1cc(Cc2ccc(Br)cc2)n2cccc(F)c12 [Example 41]
4: O=C(NC1CCOCC1)c1cc(Cc2ccc(Cl)nc2)c2cccnn12 [Example 17]
Data request: Order field: EC50 | Direction: descending (largest first) Form entry: labels listed in requested order.
Data returned: 4, 2, 1, 3
(4: 10000 nM, 2: 1760 nM, 1: 643 nM, 3: 236 nM)

a: O=C(N[C@H]1CCCC[C@@H]1O)c1cc(Cc2ccc(Br)c(F)c2)c2cccnn12 [Example 3]
b: O=C(N[C@H]1CCCC[C@@H]1O)c1cc(Cc2cccc(Br)c2)c2cccnn12 [Example 27]
c: O=C(N[C@H]1CCCC[C@@H]1O)c1cc(Cc2cc(Br)ccc2F)c2cccnn12 [Example 2]
d: Cn1cc(-c2ccc(Cc3cc(C(=O)N[C@H]4CCCC[C@@H]4O)n4ncccc34)cc2F)cn1 [Example 33]
Data request: Could you please order the items by EC50, going from the lowest number to the highest? Answer by writing out the labels in the requested order.
Data returned: d, c, a, b
(d: 259 nM, c: 419 nM, a: 653 nM, b: 1700 nM)

P: O=C(N[C@H]1CCCC[C@@H]1O)c1cc(Cc2ccc(F)cc2)c2cccnn12 [Example 8]
Q: COc1ccc(Cc2cc(C(=O)N[C@H]3CCCC[C@@H]3O)n3ncccc23)cc1 [Example 20]
Data request: I would appreciate it if you could say which entry, P or Q , has the lower EC50 value. Answer format: the label of the selected item.
Data returned: P

* * *

# procedure_details: Rodent pharmacokinetic study
# Type: in vivo, Male Wistar rats
# test_settings: male, Wistar; rat, oral 3 mg/kg, plasma
result_type: AUC(0-t) (ng·h/mL)

See these solved cases before continuing.
COc1ccc(Cc2cc(C(=O)N[C@H]3CCCC[C@@H]3O)n3ncccc23)cc1 [Example 20]; 1610
Cn1cc(-c2ccc(Cc3cc(C(=O)N[C@H]4CCCC[C@@H]4O)n4ncccc34)cc2F)cn1 [Example 33]; 2820
Cn1cc(-c2ccc(Cc3cc(C(=O)N[C@H]4CCCC[C@@H]4O)n4ncccc34)cc2)cn1 [Example 32]; 4900
Cn1cc(-c2ccc(Cc3cc(C(=O)N[C@H]4CCCC[C@@H]4O)n4ncccc34)c(F)c2)cn1 [Example 34]; 6390
O=C(N[C@H]1CCCC[C@@H]1O)c1cc(Cc2ccc(-n3cccn3)cc2)c2cccnn12 [Example 21]; 5470

A: O=C(N[C@H]1CCCC[C@@H]1O)c1cc(Cc2ccc(Br)c(F)c2)c2cccnn12 [Example 3]
B: O=C(N[C@H]1CCCC[C@@H]1O)c1cc(Cc2ccc3c(c2)CCO3)c2cccnn12 [Example 4]
Data request: Of A and B , whose reported AUC(0-t) is numerically smaller? Which one? Tell me its label.
Data returned: B

* * *

# procedure_details: Rodent pharmacokinetic study
# Type: in vivo, Male Wistar rats
# test_settings: male, Wistar; rat, oral 3 mg/kg, plasma
result_type: Cmax (ng/mL)

Cn1cc(-c2ccc(Cc3cc(C(=O)N[C@H]4CCCC[C@@H]4O)n4ncccc34)cc2)cn1; 650

P: Cn1cc(-c2ccc(Cc3cc(C(=O)N[C@H]4CCCC[C@@H]4O)n4ncccc34)c(F)c2)cn1
Q: COc1ccc(Cc2cc(C(=O)N[C@H]3CCCC[C@@H]3O)n3ncccc23)cc1
R: O=C(N[C@H]1CCCC[C@@H]1O)c1cc(Cc2ccc3c(c2)CCO3)c2cccnn12
Data request: rank_up(items): orders items by reported Cmax in ascending numerical order. In plain terms: list the labels in the order you were asked to.
Data returned: R, Q, P

* * *

# measured_target: recombinant human Muscarinic M1 receptor (Homo sapiens, UniProt P11229)
# Sequence (P11229 1-460): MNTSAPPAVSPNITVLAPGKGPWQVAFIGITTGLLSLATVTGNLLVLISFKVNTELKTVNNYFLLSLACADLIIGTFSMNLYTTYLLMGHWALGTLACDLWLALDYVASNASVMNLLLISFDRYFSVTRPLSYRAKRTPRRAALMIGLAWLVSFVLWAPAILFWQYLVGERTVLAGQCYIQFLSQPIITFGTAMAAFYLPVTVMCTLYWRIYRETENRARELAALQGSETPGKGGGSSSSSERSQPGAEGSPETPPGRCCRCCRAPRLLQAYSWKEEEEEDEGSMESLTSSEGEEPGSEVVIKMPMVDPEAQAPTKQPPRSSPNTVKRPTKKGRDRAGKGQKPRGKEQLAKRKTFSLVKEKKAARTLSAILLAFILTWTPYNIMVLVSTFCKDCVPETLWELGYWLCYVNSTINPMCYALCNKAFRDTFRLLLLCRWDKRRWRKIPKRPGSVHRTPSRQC
# procedure_details: Allosteric potency EC50 for Muscarinic M1 receptor, CHO pCRE-Luc reporter assay with EC20 of acetylcholine
# test_settings: CHO cells, in presence of EC20 of acetylcholine, 4 hours
result_type: EC50 (nM)

COc1ccc(Cc2cc(C(=O)N[C@H]3CCCC[C@@H]3O)n3ncccc23)c(F)c1; 1080
COc1ccc(Cc2cc(C(=O)N[C@H]3CCCC[C@@H]3O)n3ncccc23)cc1F; 1220
COc1cc(Cc2cc(C(=O)N[C@H]3CCCC[C@@H]3O)n3ncccc23)ccc1F; 1340
O=C(N[C@H]1CCCC[C@@H]1O)c1cc(Cc2ccccc2)n2cccc(F)c12; 1130

I: O=C(N[C@H]1CCCC[C@@H]1O)c1cc(Cc2cccc(F)c2F)c2cccnn12
II: O=C(N[C@H]1CCCC[C@@H]1O)c1cc(Cc2ccnc(Br)c2)c2cccnn12
III: O=C(N[C@H]1CCCC[C@@H]1O)c1cc(Cc2ccc(-c3cscn3)cc2)c2cccnn12
IV: COc1cccc(Cc2cc(C(=O)N[C@H]3CCCC[C@@H]3O)n3ncccc23)c1F
Data request: Please produce an ascending ranking of these compounds based on EC50. Please express your ranking as an ordered list of the labels.
Data returned: III, II, I, IV
